Test system: CCRF-CEM
ASSAY COMMENT: NCI tumour cell line growth inhibition, 48 h
Calls of active or inactive are those of the source. Rule as the data show it: active = GI50 up to about 1.1 µM and inactive = higher.
Items are presented alongside their recorded GI50.

Past entries and their recorded results:
[
  {
    "COMPOUND": "O=C1C(=O)N(c2cccc(C(F)(F)F)c2)C(=S)N1c1ccccc1",
    "RESULT": "35.9 µM (inactive)"
  },
  {
    "COMPOUND": "CN1CCN(Cc2cc3c(nn2)-c2ccccc2C3=O)CC1",
    "RESULT": "54.6 µM (inactive)"
  },
  {
    "COMPOUND": "COc1cc(S(=O)(=O)Nc2nc(-c3ccc(/N=C/c4cccs4)cc3)cs2)ccc1Cl",
    "RESULT": "33.7 µM (inactive)"
  }
]

Lookup: Which GI50 value belongs to "O=C(c1ccccc1)c1ccc2n[se]nc2c1" ?
Found: 17.8 µM (inactive)

Lookup: Now this one: "O=S(O)CCCSSc1ccccc1"
Found: 7.67 µM (inactive)

Lookup: Now this one: "O=C(CC(CC(=O)Oc1c(Br)cc(Br)cc1C(=O)O)C(=O)Oc1c(Br)cc(Br)cc1C(=O)O)Oc1c(Br)cc(Br)cc1C(=O)O"
Found: 41.6 µM (inactive)

Lookup: Now this one: "CC(C)(C)c1cc(CCC(=O)Nc2ccc(Cl)cc2)nc(NC#N)n1"
Found: > 100 µM (inactive)

Lookup: Now this one: "COc1cc(Nc2nc3cc(C(F)(F)F)ccc3nc2C(=O)O)cc(OC)c1OC"
Found: 29.4 µM (inactive)

The values you see were collected from ChEMBL document CHEMBL1201862.
